# SYSTEM: Protein Mdm4 (Homo sapiens) + E3 ubiquitin-protein ligase Mdm2 (Homo sapiens) (UniProt O15151+Q00987)
# Sequence (O15151 whole entry, looked up): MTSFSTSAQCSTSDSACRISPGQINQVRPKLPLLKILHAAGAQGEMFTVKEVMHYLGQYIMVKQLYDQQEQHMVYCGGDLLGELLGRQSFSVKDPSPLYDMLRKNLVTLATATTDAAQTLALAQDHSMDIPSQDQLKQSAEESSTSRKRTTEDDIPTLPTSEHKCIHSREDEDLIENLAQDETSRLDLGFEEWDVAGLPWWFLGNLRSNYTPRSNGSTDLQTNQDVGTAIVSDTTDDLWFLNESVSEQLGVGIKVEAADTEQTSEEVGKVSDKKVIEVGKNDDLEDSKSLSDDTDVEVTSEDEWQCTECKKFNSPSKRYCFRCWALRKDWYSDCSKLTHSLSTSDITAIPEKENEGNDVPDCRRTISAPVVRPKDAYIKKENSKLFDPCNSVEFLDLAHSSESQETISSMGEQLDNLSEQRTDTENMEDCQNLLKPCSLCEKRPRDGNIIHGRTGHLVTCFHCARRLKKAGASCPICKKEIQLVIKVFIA
# Sequence (Q00987 whole entry, looked up): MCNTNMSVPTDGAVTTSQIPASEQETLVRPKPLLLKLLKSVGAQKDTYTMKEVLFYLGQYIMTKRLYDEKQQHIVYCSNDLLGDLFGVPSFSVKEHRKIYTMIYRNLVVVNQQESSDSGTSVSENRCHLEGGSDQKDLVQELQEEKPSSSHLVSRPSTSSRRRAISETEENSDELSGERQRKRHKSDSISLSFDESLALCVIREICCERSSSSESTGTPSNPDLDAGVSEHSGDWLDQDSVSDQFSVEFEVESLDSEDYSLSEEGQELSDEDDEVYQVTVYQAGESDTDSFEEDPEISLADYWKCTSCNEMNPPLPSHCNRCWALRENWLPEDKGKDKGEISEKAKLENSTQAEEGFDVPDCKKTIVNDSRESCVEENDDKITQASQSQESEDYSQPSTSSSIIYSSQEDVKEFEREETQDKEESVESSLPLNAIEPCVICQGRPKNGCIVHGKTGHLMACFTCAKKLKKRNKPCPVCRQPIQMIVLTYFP
# ASSAY_TEXT: inhibitors of human Mdm2-MdmX association, primary screen, cell-based, luminescence, split luciferase, SaOS-2, uHTS (AID 485346)
# APPLIED_CONDITIONS: SaOS-2 split-luciferase Mdm2/MdmX complementation, at 8 µM, active compounds read high
Out of some 330,000 compounds screened, about 10,000 (3%) were called active. This excerpt belongs to a sample that is enriched for actives.
Binary call on inhibition: yes from 10% upward, no beneath that.

CC(=O)Oc1c(C(=O)c2nnc(C)o2)c(=O)n(Cc2ccccc2)c2ccccc12 :: yes
COC(=O)CSc1nc2ccccc2c(=O)n1Cc1ccccc1 :: no
Cc1cc(C)nc(SCC(=O)N(C)C)n1 :: no

Is the recorded value of inhibition equal to or greater than 10% for this compound? "C/C=C/C=C/C(=O)OCC(=O)Nc1ccc(Cl)cc1" yes

Could you tell me if the measured inhibition of "Cc1nc(/N=C(\N)NC(=O)NC2CCCCC2)nc2ccccc12" reaches 10% or more? yes

Threshold query (inhibition >= 10%) on O=C1C(=O)N(CC2COc3ccccc3O2)c2ccccc21 (stereo not given) yes

Tell me whether inhibition is at least 10% here: CCCCC1(C(=O)OCC)NC(c2ccc(O)cc2)C2C(=O)N(c3ccccc3)C(=O)C21 (stereo not given) no

# bool: inhibition of "COc1cccc(CNn2cn[nH]c2=S)c1OCc1ccccc1" >= 10% yes

Please indicate if the recorded inhibition for O=C1C(C=NCC2CCCO2)=C(O)c2ccccc21 (stereo not given) meets or exceeds 10%. no

Entry source: PubChem BioAssay AID485346
